The origin of these recorded values is patent US20250302972A1.

Target: human TLR2 (Homo sapiens, UniProt O60603)
Construct: expressed in transfected cells; host or cells: HEK-Blue hTLR2
Sequence (O60603 21-784): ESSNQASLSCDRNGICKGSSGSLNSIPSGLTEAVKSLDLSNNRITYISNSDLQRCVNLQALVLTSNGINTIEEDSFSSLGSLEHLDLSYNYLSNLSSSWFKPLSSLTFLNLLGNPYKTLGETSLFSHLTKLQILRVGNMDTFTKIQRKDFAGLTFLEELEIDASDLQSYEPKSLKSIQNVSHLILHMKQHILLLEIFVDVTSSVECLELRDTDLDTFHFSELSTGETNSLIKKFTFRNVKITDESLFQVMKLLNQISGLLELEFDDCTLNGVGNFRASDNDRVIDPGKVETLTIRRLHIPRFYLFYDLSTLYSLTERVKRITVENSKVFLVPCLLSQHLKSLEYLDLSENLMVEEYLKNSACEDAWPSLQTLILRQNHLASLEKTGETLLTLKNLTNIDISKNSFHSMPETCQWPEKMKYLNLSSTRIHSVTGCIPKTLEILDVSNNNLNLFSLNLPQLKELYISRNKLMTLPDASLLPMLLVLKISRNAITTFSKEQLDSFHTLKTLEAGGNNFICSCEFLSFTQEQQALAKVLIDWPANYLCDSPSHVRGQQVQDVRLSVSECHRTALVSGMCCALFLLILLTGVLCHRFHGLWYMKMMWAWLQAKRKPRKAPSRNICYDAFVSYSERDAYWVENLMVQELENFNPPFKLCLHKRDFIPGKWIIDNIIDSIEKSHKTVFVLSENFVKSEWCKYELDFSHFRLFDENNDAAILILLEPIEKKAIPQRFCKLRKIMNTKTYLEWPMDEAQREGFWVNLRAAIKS
Sequence (Q9Y2C9 32-796 partner): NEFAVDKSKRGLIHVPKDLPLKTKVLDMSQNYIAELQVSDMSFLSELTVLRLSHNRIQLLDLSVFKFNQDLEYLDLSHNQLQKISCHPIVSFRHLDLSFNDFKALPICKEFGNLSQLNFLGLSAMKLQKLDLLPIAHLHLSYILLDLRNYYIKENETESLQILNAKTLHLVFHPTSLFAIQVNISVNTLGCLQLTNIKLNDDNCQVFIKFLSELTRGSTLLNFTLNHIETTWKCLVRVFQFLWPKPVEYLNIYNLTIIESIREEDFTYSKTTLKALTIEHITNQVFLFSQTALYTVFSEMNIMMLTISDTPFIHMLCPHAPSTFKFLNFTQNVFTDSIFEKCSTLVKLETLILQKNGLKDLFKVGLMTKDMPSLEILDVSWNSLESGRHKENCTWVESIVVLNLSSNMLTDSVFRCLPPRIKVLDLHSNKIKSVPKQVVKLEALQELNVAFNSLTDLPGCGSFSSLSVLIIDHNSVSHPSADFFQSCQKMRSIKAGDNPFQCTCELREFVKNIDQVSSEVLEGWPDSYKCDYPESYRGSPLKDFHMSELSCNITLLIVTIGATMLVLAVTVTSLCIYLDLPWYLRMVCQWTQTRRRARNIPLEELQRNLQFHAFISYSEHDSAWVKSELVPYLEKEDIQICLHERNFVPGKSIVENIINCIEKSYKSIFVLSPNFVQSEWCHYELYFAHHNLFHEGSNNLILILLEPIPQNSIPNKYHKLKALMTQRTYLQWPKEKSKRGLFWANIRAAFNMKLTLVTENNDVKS
Assay: HEK-Blue hTLR2 Dose Response (NF-κB SEAP reporter)
Type: cell-based
Details: 0.12 pg/mL
measured.property: optical density (650 nm), Average
Field format: numeric only.

Query: Provide the documented optical density (650 nm), Average with human TLR2 (Homo sapiens, UniProt O60603) as the system for CCCCCCCCCCCCCCC(C)C(=O)OC[C@H](CSC[C@H](N)C(=O)N[C@@H](CO)C(=O)NCCOCCOCCOCCOCCOCCOCCOCCOCCOCCOCCOCCOCCOCCOCCOCCOCCOCCOCCOCCOCCOCCOCCOCCOCCOCCOCCOCCOCCC(=O)NCC(N)=O)OC(=O)C(C)CCCCCCCCCCCCCC (stereo partly shown)
Result: 0.740

====

Molecular target: human TLR2 (Homo sapiens, UniProt O60603)
Construct: expressed in transfected cells; host or cells: HEK-Blue hTLR2
Assay: HEK-Blue hTLR2 Dose Response (NF-κB SEAP reporter)
Type: cell-based
Conditions: 500 pg/mL
Protocol: Toll-Like Receptor (TLR) stimulation is tested by assessing NF-κB activation in the TLR expressing cell lines. HEK-Blue h/mTLR2 cells have been stably transfected with human or mouse TLR2 and CD14. The activity of the test articles are tested on human and mouse TLR2, as potential agonists. The test articles are evaluated at seven concentrations and compared to control ligands (see list below). These steps are performed in triplicate. […]
Please go through the items and note down their optical density (650 nm), Average.
# print the numeric value only

Query: What does the data say about its optical density (650 nm), Average? Entry: `CCCCCCCCCCCCCC[C@H](C)C(=O)OCC[C@H](CSC[C@H](N)C(=O)N[C@@H](CO)C(=O)NCCOCCOCCOCCOCCOCCOCCOCCOCCOCCOCCOCCOCCOCCOCCOCCOCCOCCOCCOCCOCCOCCOCCOCCOCCOCCOCCOCCOCCC(=O)NCC(N)=O)OC(=O)[C@@H](C)CCCCCCCCCCCCCC`
Result: 2.475

Query: Quick one: optical density (650 nm), Average for `CCCCCCCCCCCCCC[C@H](C)C(=O)OC[C@H](CSC[C@H](N)C(=O)N[C@@H](CO)C(=O)NCCOCCOCCOCCOCCOCCOCCOCCOCCOCCOCCOCCOCCOCCOCCOCCOCCOCCOCCOCCOCCOCCOCCOCCOCCOCCOCCOCCOCCC(=O)NCC(N)=O)OC(=O)[C@@H](C)CCCCCCCCCCCCCC` ?
Result: 2.668

Query: Consider the compound shown here: `CCCCCCCCCCCCCC[C@@H](C)C(=O)OCC[C@H](CSC[C@H](N)C(=O)N[C@@H](CO)C(=O)NCCOCCOCCOCCOCCOCCOCCOCCOCCOCCOCCOCCOCCOCCOCCOCCOCCOCCOCCOCCOCCOCCOCCOCCOCCOCCOCCOCCOCCC(=O)NCC(N)=O)OC(=O)[C@H](C)CCCCCCCCCCCCCC` What is its recorded optical density (650 nm), Average?
Result: 2.759

Query: // lookup optical density (650 nm), Average for `CCCCCCCCCCCCCC[C@@H](C)C(=O)OC[C@H](CSC[C@H](N)C(=O)N[C@@H](CO)C(=O)NCCOCCOCCOCCOCCOCCOCCOCCOCCOCCOCCOCCOCCOCCOCCOCCOCCOCCOCCOCCOCCOCCOCCOCCOCCOCCOCCOCCOCCC(=O)NCC(N)=O)OC(=O)[C@H](C)CCCCCCCCCCCCCC`
Result: 2.637

====

Target: human TLR2 (Homo sapiens, UniProt O60603)
Construct: expressed in transfected cells; host or cells: HEK-Blue hTLR2
Assay: HEK-Blue hTLR2 Dose Response (NF-κB SEAP reporter)
Format: cell-based
Settings: 31.25 pg/mL
Hi there, I'd appreciate the recorded optical density (650 nm), Average for every entry that follows.
Respond numerically, and do not add a unit to the figure.

Query: Record lookup: for human TLR2 (Homo sapiens, UniProt O60603), what optical density (650 nm), Average belongs to `CCCCCCCCCCCCCC[C@@H](C)C(=O)OCC[C@H](CSC[C@H](N)C(=O)N[C@@H](CO)C(=O)NCCOCCOCCOCCOCCOCCOCCOCCOCCOCCOCCOCCOCCOCCOCCOCCOCCOCCOCCOCCOCCOCCOCCOCCOCCOCCOCCOCCOCCC(=O)NCC(N)=O)OC(=O)[C@H](C)CCCCCCCCCCCCCC` ?
Result: 2.744

Query: Observed optical density (650 nm), Average on human TLR2 (Homo sapiens, UniProt O60603) for `CCCCCCCCCCCCCC[C@H](C)C(=O)OCC[C@H](CSC[C@H](N)C(=O)N[C@@H](CO)C(=O)NCCOCCOCCOCCOCCOCCOCCOCCOCCOCCOCCOCCOCCOCCOCCOCCOCCOCCOCCOCCOCCOCCOCCOCCOCCOCCOCCOCCOCCC(=O)NCC(N)=O)OC(=O)[C@@H](C)CCCCCCCCCCCCCC` , please.
Result: 2.252
